system: NCI-H1355; test: relative viability (nuclei count vs DMSO), 5 days (fraction); higher = more cells survive; conditions: first compound 4 µM
readout.name: relative viability
Numbers only.

Cc1sc2c(c1C)C(c1ccc(Cl)cc1)=N[C@@H](CC(=O)OC(C)(C)C)c1nnc(C)n1-2 [JQ1] + CS(=O)(=O)N1CCN(Cc2cc3nc(-c4cccc5[nH]ncc45)nc(N4CCOCC4)c3s2)CC1 [Pictilisib] (partner 1 µM) = 0.281

Working through the 3 compounds below one at a time, give relative viability for each.
1. Cc1sc2c(c1C)C(c1ccc(Cl)cc1)=N[C@@H](CC(=O)OC(C)(C)C)c1nnc(C)n1-2 [JQ1] + O=C(CCCCCCC(=O)Nc1ccccc1)NO [Vorinostat] (partner 1 µM)
2. Cc1sc2c(c1C)C(c1ccc(Cl)cc1)=N[C@@H](CC(=O)OC(C)(C)C)c1nnc(C)n1-2 [JQ1] + Cc1cc(Nc2cc(N3CCN(C)CC3)nc(Sc3ccc(NC(=O)C4CC4)cc3)n2)n[nH]1 [Tozasertib] (partner 0.1 µM)
3. Cc1sc2c(c1C)C(c1ccc(Cl)cc1)=N[C@@H](CC(=O)OC(C)(C)C)c1nnc(C)n1-2 [JQ1] + CC(C)C[C@H](NC(=O)[C@H](Cc1ccccc1)NC(=O)c1cnccn1)B(O)O [Bortezomib] (partner 0.002 µM)

[0.281, 0.202, 0.669]

* * *

tested on: CAL-12T; assay: relative viability (nuclei count vs DMSO), 5 days (fraction); higher = more cells survive; details: first compound 0.4 µM
Kindly state relative viability for each of the entries shown.

Example entries begin here.
Cc1sc2c(c1C)C(c1ccc(Cl)cc1)=N[C@@H](CC(=O)OC(C)(C)C)c1nnc(C)n1-2 [JQ1] + CC(C)C[C@H](NC(=O)[C@H](Cc1ccccc1)NC(=O)c1cnccn1)B(O)O [Bortezomib] (partner 0.002 µM) = 0.638
Cc1sc2c(c1C)C(c1ccc(Cl)cc1)=N[C@@H](CC(=O)OC(C)(C)C)c1nnc(C)n1-2 [JQ1] + O=C(CCCCCCC(=O)Nc1ccccc1)NO [Vorinostat] (partner 1 µM) = 0.685
Cc1sc2c(c1C)C(c1ccc(Cl)cc1)=N[C@@H](CC(=O)OC(C)(C)C)c1nnc(C)n1-2 [JQ1] + COc1cc2c(Oc3ccc(NC(=O)C4(C(=O)Nc5ccc(F)cc5)CC4)cc3F)ccnc2cc1OCCCN1CCOCC1 [Foretinib] (partner 0.25 µM) = 0.858

What measured relative viability goes with Cc1sc2c(c1C)C(c1ccc(Cl)cc1)=N[C@@H](CC(=O)OC(C)(C)C)c1nnc(C)n1-2 [JQ1] + NC(=O)Nc1cc(-c2cccc(F)c2)sc1C(=O)N[C@H]1CCCNC1 [AZD7762] (partner 0.2 µM) ?
0.466

* * *

system: PC-14; test: relative viability (nuclei count vs DMSO), 5 days (fraction); higher = more cells survive; conditions: first compound 0.01581 µM
Kindly state relative viability for each of the entries shown.
Numbers only.

Example entries begin here.
Nc1ccn([C@@H]2O[C@H](CO)[C@@H](O)[C@@H]2O)c(=O)n1 [Cytarabine] + CC(C)C[C@H](NC(=O)[C@H](Cc1ccccc1)NC(=O)c1cnccn1)B(O)O [Bortezomib] (partner 0.002 µM) = 0.88
Nc1ccn([C@@H]2O[C@H](CO)[C@@H](O)[C@@H]2O)c(=O)n1 [Cytarabine] + NC(=O)Nc1cc(-c2cccc(F)c2)sc1C(=O)N[C@H]1CCCNC1 [AZD7762] (partner 0.2 µM) = 0.234
COc1cc2nccc(Oc3ccc(NC(=O)Nc4cc(C)on4)c(Cl)c3)c2cc1OC [Tivozanib] + C[C@@H](Oc1cc(-c2cnn(C3CCNCC3)c2)cnc1N)c1c(Cl)ccc(F)c1Cl [Crizotinib] (partner 1 µM) = 0.879
COc1cc2nccc(Oc3ccc(NC(=O)Nc4cc(C)on4)c(Cl)c3)c2cc1OC [Tivozanib] + CS(=O)(=O)N1CCN(Cc2cc3nc(-c4cccc5[nH]ncc45)nc(N4CCOCC4)c3s2)CC1 [Pictilisib] (partner 1 µM) = 0.604
COc1cc2nccc(Oc3ccc(NC(=O)Nc4cc(C)on4)c(Cl)c3)c2cc1OC [Tivozanib] + O=C(CCCCCCC(=O)Nc1ccccc1)NO [Vorinostat] (partner 1 µM) = 0.792
Nc1ccn([C@@H]2O[C@H](CO)[C@@H](O)[C@@H]2O)c(=O)n1 [Cytarabine] + Cc1nc(NC(=O)N2CCC[C@H]2C(N)=O)sc1-c1ccnc(C(C)(C)C(F)(F)F)c1 [Alpelisib] (partner 2 µM) = 1.13

Working through the 2 compounds below one at a time, give relative viability for each.
1. COc1cc2nccc(Oc3ccc(NC(=O)Nc4cc(C)on4)c(Cl)c3)c2cc1OC [Tivozanib] + COc1cc2c(Oc3ccc(NC(=O)C4(C(=O)Nc5ccc(F)cc5)CC4)cc3F)ccnc2cc1OCCCN1CCOCC1 [Foretinib] (partner 0.25 µM)
2. COc1cc2nccc(Oc3ccc(NC(=O)Nc4cc(C)on4)c(Cl)c3)c2cc1OC [Tivozanib] + Cc1nc(NC(=O)N2CCC[C@H]2C(N)=O)sc1-c1ccnc(C(C)(C)C(F)(F)F)c1 [Alpelisib] (partner 2 µM)

0.959
0.993
